The following molecules are shown together with reported log10(Ki) values.
Target: hCA II (Homo sapiens)
Construct: gene CA2; recombinant, obtained in-house; cytosolic
Experiment: stopped-flow CO2 hydration assay
Assay type: biochemical
Units before log transform: nM; reported quantity: Ki; transform: log10.

NS(=O)(=O)Nc1ccccc1S(=O)(=O)NCCC(=O)N1CCN(C(c2ccc(F)cc2)c2ccc(F)cc2)CC1 [6d] : 2.28
NS(=O)(=O)Nc1cccc(S(=O)(=O)N2CCCC(C(=O)N3CCN(C(c4ccccc4)c4ccccc4)CC3)C2)c1 (stereo not drawn) [6h] : 2.96
NS(=O)(=O)Nc1ccc(S(=O)(=O)NCCC(=O)N2CCN(C(c3ccc(F)cc3)c3ccc(F)cc3)CC2)cc1 [6f] : 2.61
NS(=O)(=O)Nc1ccc(S(=O)(=O)N2CCCC(C(=O)N3CCN(C(c4ccccc4)c4ccccc4)CC3)C2)cc1 (stereo not drawn) [6i] : 2.66
NS(=O)(=O)Nc1ccccc1S(=O)(=O)NCCC(=O)N1CCN(C(c2ccccc2)c2ccccc2)CC1 [6a] : 2.67

Please give the measured log10(Ki) for this molecule: NS(=O)(=O)Nc1ccccc1S(=O)(=O)N1CCCC(C(=O)N2CCN(C(c3ccc(F)cc3)c3ccc(F)cc3)CC2)C1 (stereo not drawn) [6j]
3.81

# input molecule: NS(=O)(=O)Nc1cccc(S(=O)(=O)NCCC(=O)N2CCN(C(c3ccccc3)c3ccccc3)CC2)c1 [6b] ; wanted: its log10(Ki)
2.62

So what's the measured log10(Ki) for this one? NS(=O)(=O)Nc1ccc(S(=O)(=O)NCCC(=O)N2CCN(C(c3ccccc3)c3ccccc3)CC2)cc1 [6c]
2.64

Which log10(Ki) is reported for this molecule? NS(=O)(=O)Nc1cccc(S(=O)(=O)N2CCCC(C(=O)N3CCN(C(c4ccc(F)cc4)c4ccc(F)cc4)CC3)C2)c1 (stereo not drawn) [6k]
2.88

Reported log10(Ki), molecule NS(=O)(=O)Nc1ccc(S(=O)(=O)N2CCCC(C(=O)N3CCN(C(c4ccc(F)cc4)c4ccc(F)cc4)CC3)C2)cc1 (stereo not drawn) [6l] : ____
2.90

Param item = NS(=O)(=O)Nc1cccc(S(=O)(=O)NCCC(=O)N2CCN(C(c3ccc(F)cc3)c3ccc(F)cc3)CC2)c1 [6e] ; retrieve measured log10(Ki).
2.22

Dear colleague, I am looking for the recorded log10(Ki) of the following molecule: NS(=O)(=O)Nc1ccccc1S(=O)(=O)N1CCCC(C(=O)N2CCN(C(c3ccccc3)c3ccccc3)CC2)C1 (stereo not drawn) [6g]
1.95

----------
Target: hCA I (Homo sapiens, UniProt P00915)
Construct: recombinant, obtained in-house; cytosolic
Sequence (P00915 2-261): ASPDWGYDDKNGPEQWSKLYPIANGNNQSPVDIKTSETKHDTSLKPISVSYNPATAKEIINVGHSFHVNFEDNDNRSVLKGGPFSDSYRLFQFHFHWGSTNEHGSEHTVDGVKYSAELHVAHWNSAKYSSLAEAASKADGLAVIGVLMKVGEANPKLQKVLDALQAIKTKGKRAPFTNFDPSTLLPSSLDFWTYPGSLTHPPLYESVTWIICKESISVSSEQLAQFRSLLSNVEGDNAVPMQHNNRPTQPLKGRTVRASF
Assay: stopped-flow CO2 hydration assay
Define the label as true (1) when Ki is strictly less than 80 nM and as false (0) in all remaining cases.

As a guide, the following entries are already answered.
NS(=O)(=O)Nc1ccc(S(=O)(=O)N2CCCC(C(=O)N3CCN(C(c4ccccc4)c4ccccc4)CC3)C2)cc1 (centres unmarked) [6i] : false (0)
NS(=O)(=O)Nc1ccc(S(=O)(=O)NCCC(=O)N2CCN(C(c3ccc(F)cc3)c3ccc(F)cc3)CC2)cc1 [6f] : true (1)
NS(=O)(=O)Nc1cccc(S(=O)(=O)NCCC(=O)N2CCN(C(c3ccc(F)cc3)c3ccc(F)cc3)CC2)c1 [6e] : false (0)
NS(=O)(=O)Nc1cccc(S(=O)(=O)N2CCCC(C(=O)N3CCN(C(c4ccccc4)c4ccccc4)CC3)C2)c1 (centres unmarked) [6h] : true (1)

Now, please, on to the next molecule.
Confirm or reject: Ki of NS(=O)(=O)Nc1cccc(S(=O)(=O)NCCC(=O)N2CCN(C(c3ccccc3)c3ccccc3)CC2)c1 [6b] lies strictly below 80 nM
false (0)
